- MEASURED_ON: Protein ENL (Homo sapiens)
- CONDITION_SUMMARY: dose 111.0 nM, time 45.0 min
VALUE_KIND: inhibition (%)

• C[C@H]1CCCN1Cc1nc2cc(NC(=O)c3ccc4nn(C)cc4c3)ccc2[nH]1 = 86.8
• C[C@H]1CCCN1Cc1nc2cc(NC(=O)c3ccc4c(cnn4CCNC(=O)c4ccccc4)c3)ccc2[nH]1 = 86.2
• Cc1cccc2c(=O)n(C)c3ccc(C(=O)Nc4ccc5[nH]c(CN6CCC[C@@H]6C)nc5c4)cc3c12 = 63.2
• CCCCn1ncc2cc(C(=O)Nc3ccc4[nH]c(CN5CCC[C@@H]5C)nc4c3)ccc21 = 98
• C[C@H]1CCCN1Cc1nc2cc(NC(=O)c3ccc4nn(CCN)cc4c3)ccc2[nH]1 = 84.1
• C[C@H]1CCCN1Cc1nc2cc(NC(=O)c3ccc4c(c3)c3ccccc3c(=O)n4C)ccc2[nH]1 = 99.6
• C[C@H]1CCCN1Cc1nc2cc(NC(=O)c3ccc4c(cnn4CCN)c3)ccc2[nH]1 = 100
• C[C@H]1CCCN1Cc1nc2cc(NC(=O)c3ccc4c(cnn4C)c3)ccc2[nH]1 = 99.8
• C[C@H]1CCCN1Cc1nc2cc(NC(=O)c3ccc4c(cnn4CCN4CC(O)C(O)C4C(O)CO)c3)ccc2[nH]1 (some centres undefined) = 84.6
